Each recorded value in this set is attributed to ChEMBL document CHEMBL1961873.

- measured on: RAC-alpha serine/threonine-protein kinase (Homo sapiens) (UniProt P31749)
- Sequence (P31749 whole entry): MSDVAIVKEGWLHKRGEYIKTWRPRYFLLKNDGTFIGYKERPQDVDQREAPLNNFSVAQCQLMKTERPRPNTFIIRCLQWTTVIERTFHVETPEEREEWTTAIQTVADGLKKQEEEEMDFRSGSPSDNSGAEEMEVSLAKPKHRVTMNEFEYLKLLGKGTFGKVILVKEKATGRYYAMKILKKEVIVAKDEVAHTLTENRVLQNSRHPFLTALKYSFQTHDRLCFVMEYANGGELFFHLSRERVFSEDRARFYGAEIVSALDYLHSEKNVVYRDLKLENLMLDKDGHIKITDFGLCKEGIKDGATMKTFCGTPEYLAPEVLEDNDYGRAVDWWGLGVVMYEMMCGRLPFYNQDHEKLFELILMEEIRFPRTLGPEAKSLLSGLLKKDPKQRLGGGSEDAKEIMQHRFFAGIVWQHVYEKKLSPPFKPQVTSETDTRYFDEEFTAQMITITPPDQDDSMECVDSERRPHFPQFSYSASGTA
- measurement parameters: at 1 µM
- Description: GSK_PKIS: AKT1 mean inhibition at 1 uM [Nanosyn]
measured attribute: inhibition (%)
Number in %, nothing else.

Completed entries (count: 2):
mol	quantitative result
Cc1cc(-c2ccco2)cc(C)c1/C=C/c1cncc(-c2nn[nH]n2)c1	-0.39
COc1cccc(-n2ncc3c(N/N=C/c4ccncc4)ncnc32)c1	-0.78

Please examine the following record next.
Data request: Any idea what inhibition was measured for COc1cccc(COc2cc(-n3cnc4ccccc43)sc2C(N)=O)c1 ?
Data returned: 0.35

----------
- measured on: Protein kinase C eta type (Homo sapiens) (UniProt P24723)
- Sequence (P24723 whole entry): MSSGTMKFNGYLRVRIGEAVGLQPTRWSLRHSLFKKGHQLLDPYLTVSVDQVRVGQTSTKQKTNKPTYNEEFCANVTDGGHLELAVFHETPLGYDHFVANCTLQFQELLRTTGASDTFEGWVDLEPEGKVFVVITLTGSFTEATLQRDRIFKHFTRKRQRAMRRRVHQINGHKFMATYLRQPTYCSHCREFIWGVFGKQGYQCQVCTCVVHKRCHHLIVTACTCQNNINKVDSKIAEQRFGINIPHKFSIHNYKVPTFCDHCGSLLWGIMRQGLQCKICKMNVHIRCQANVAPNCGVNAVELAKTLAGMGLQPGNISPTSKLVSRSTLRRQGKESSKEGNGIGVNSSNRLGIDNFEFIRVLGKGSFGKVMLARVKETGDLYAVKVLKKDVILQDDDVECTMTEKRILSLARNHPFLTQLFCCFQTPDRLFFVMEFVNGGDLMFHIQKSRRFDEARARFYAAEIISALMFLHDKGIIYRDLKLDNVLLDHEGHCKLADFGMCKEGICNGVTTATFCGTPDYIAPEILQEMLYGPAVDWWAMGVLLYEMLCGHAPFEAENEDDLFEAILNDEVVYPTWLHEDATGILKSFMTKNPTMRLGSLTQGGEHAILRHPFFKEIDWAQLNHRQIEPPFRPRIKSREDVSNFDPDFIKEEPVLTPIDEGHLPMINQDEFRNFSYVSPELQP
- measurement parameters: at 0.1 µM
inhibition for assorted compounds
Number in %, nothing else.

Completed entries (count: 2):
mol	unit abbreviation	quantitative result
CCn1c(-c2nonc2N)nc2c(C#CC(C)(C)O)nc(O[C@@H](CN)c3ccccc3)cc21	%	96.3
Cc1cc(-c2ccco2)cc(C)c1/C=C/c1cncc(-c2nn[nH]n2)c1	%	1.26

Please examine the following record next.
Data request: Any idea what inhibition was measured for NS(=O)(=O)c1ccc(N/C=C2\C(=O)Nc3ccc4ncsc4c32)cc1 ?
Data returned: 1.67

----------
inhibition for assorted compounds
- measured on: Platelet-derived growth factor receptor beta (Homo sapiens)
- measurement parameters: at 1 µM
Number in %, nothing else.

Completed entries (count: 2):
mol	measured on	inhibition, %
NC(=O)c1sc(-n2cnc3cc(C(F)(F)F)ccc32)cc1OCc1ccccc1Br	Platelet-derived growth factor receptor beta (Homo sapiens)	5.82
CCn1c(-c2nonc2N)nc2c(C#CC(C)(C)O)nc(O[C@@H](CN)c3ccccc3)cc21	Platelet-derived growth factor receptor beta (Homo sapiens)	79.5

Please examine the following record next.
Data request: Any idea what inhibition was measured for CCn1c(-c2nonc2N)nc2c(C#CC(C)(C)O)ncc(OCC3CCNCC3)c21 ?
Data returned: 44.6

----------
- measured on: Glycogen synthase kinase-3 alpha (Homo sapiens) (UniProt P49840)
- Sequence (P49840 2-483 limits assumed): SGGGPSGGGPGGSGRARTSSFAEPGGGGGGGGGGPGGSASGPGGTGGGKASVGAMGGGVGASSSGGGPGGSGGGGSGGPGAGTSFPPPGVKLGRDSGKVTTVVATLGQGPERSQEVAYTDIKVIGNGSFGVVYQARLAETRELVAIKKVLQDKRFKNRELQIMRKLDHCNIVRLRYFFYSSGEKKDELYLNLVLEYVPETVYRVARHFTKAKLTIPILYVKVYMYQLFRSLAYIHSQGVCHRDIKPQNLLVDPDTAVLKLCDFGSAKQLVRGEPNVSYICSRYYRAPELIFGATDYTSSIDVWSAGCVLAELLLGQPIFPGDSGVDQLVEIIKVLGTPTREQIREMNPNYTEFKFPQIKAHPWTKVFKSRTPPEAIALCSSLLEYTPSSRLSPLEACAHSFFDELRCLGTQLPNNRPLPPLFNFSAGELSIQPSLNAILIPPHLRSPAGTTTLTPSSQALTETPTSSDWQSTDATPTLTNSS
- measurement parameters: at 1 µM
measured attribute: inhibition
Express your answer as a number followed by its unit.

mol	inhibition
Fc1ccc(-c2ncn(C3CCNCC3)c2-c2ccnc(Oc3ccccc3)n2)cc1	-2.08%
COc1cc(C=NNc2ncnc3c2cnn3Cc2ccccc2)ccc1O	19.6%
Cc1cc(-c2ccco2)cc(C)c1/C=C/c1cncc(-c2nn[nH]n2)c1	0.72%
COc1cc2c(cc1Nc1nc(Nc3ccsc3C(N)=O)c3cc[nH]c3n1)N(C(=O)CN(C)C)CCC2	0.89%
COc1cccc(-n2ncc3c(N/N=C/c4ccncc4)ncnc32)c1	90%

Please examine the following record next.
Data request: Any idea what inhibition was measured for Nc1nonc1-c1nc2cnccc2n1C1CCCCC1 ?
Data returned: 90.8%
